conditions: in n-propanol, 325.35 K
Property name: solubility (mole fraction)
Lab note: record just the number, no unit beside it.

QUERY: Report solubility (mole fraction) for C[C@@H](O[C@H]1OCCN(Cc2n[nH]c(=O)[nH]2)[C@H]1c1ccc(F)cc1)c1cc(C(F)(F)F)cc(C(F)(F)F)c1 please.
RESULT: 0.00463

---

conditions: in acetonitrile, 318.85 K
Property name: solubility (mole fraction)
Answer as a number with no unit attached.

QUERY: Can you look up the measured solubility (mole fraction) of C[C@@H](O[C@H]1OCCN(Cc2n[nH]c(=O)[nH]2)[C@H]1c1ccc(F)cc1)c1cc(C(F)(F)F)cc(C(F)(F)F)c1 for me?
RESULT: 0.00063

The reported numbers originate from BigSolDB 2.1.
